The reader will find reported inhibition values listed item by item below.
Test: blockers of RIG-like receptor reporter activation – cell-based, Sendai virus stimulus, luciferase, 10K MLSCN set, TLR/RLR signaling modifier project, primary screen (AID 602276);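 also: firefly luciferase from ISG56 promoter only with Renilla not read in this screen; 0% = Sendai virus plus DMSO and 100% = medium plus DMSO without virus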
Details: HEK293 RL24 IRF3 luciferase reporter, at 10 µM, hits give high values
The source made the active and inactive calls.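 The calls were made as follows: active = inhibition at or above 50% at 10 µM; inactive = inhibition below 50%.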

# compound, inhibition
measured = [
    ("CC(C)(C)n1nnnc1C(c1ccccc1)N1CCc2ccccc2C1 (stereo not drawn)", "20.4% (inactive)"),
    ("CCN(CC)CCN1C(=O)c2oc3ccc(F)cc3c(=O)c2C1c1ccncc1 (stereo not drawn)", "15.9% (inactive)"),
    ("CCOc1ccc(N(CC(=O)NCc2cccc(OC)c2)S(=O)(=O)c2c(C)noc2C)cc1", "-5.75% (inactive)"),
    ("CN(C)C(=O)Cn1c(SCC(=O)NC2CCCCC2)nc2ccccc21", "5.56% (inactive)"),
    ("Cc1ccc(NC2=NC3(CCCCC3)N=C(N)N2)c(C)c1", "-10.3% (inactive)"),
    ("COc1ccc(-n2nnnc2SCC(=O)N2CCOCC2)cc1", "2.03% (inactive)"),
    ("COC(=O)c1c(C#N)c(N)nc2c1CCC2", "9.2% (inactive)"),
    ("CC1(C)CC(=O)C(C=NCC2CCNCC2)=C(O)C1", "3.67% (inactive)"),
    ("Cc1cc(=O)n(C)c(=O)n1CCCCCN1CCCC1", "19.1% (inactive)"),
    ("Cc1cc(C)n(-c2nc3sc4c(c3c3nnc(SC(C)C)n23)CC(C)(C)OC4)n1", "-16.9% (inactive)"),
    ("Cc1nc2c(-c3ccccc3)c(C)nn2c(C)c1CCC(=O)NCc1ccco1", "9.03% (inactive)"),
    ("CCCN(CCC)C(=O)c1c(C)[nH]c(C(=O)OCC)c1C", "-15.1% (inactive)"),
    ("COc1cccc(-c2nnc(SCC(N)=O)n2-c2ccc(Cl)cc2)c1", "8.3% (inactive)"),
    ("O=c1oc2ccccc2c2nccnc12", "5.7% (inactive)"),
    ("COc1ccc(OCCOC(=O)c2cccs2)cc1", "-2.79% (inactive)"),
    ("Cc1cc(Nc2ccc(C(=O)O)cc2)n2nc(C)nc2n1", "7.19% (inactive)"),
    ("CC1CCc2nn(CC(=O)Nc3ccc(F)cc3F)cc2C1 (stereo not drawn)", "-5.03% (inactive)"),
    ("CCOC(=O)c1cccc(NC(=O)c2ccco2)c1", "-16.7% (inactive)"),
    ("Clc1cccc(Nc2c3c(nc4ncnn24)CCC3)c1", "14.9% (inactive)"),
    ("CCC(C)c1ccc(NC(=O)c2cccnc2)cc1 (stereo not drawn)", "-47.8% (inactive)"),
    ("CCCCOC(=O)n1c(SCC(=O)N(CC)CC)nc2ccccc21", "-15.8% (inactive)"),
    ("CSCCC(NS(=O)(=O)c1ccc2c(c1)oc(=O)n2C)C(=O)NC1CCCCC1 (stereo not drawn)", "11.8% (inactive)"),
    ("O=C(Nc1nccs1)c1ccc(COc2ccccc2Br)o1", "21.2% (inactive)"),
    ("CCC(=O)Nc1cc2nn(-c3ccccc3)nc2cc1Cl", "-10.5% (inactive)"),
    ("COC(C)(C)c1cc(C(C)(C)C)nc(N)n1", "6.59% (inactive)"),
    ("COc1ccc(-n2c(Cc3cccn3C)nnc2SCC(N)=O)cc1", "17.9% (inactive)"),
    ("CCn1cc(S(=O)(=O)CC(=O)Nc2ccc(OC)cc2)c2ccccc21", "7.03% (inactive)"),
    ("CC(=O)C1=C(C)NC(SCSc2ccccc2)=C(C#N)C1c1cccnc1 (stereo not drawn)", "1.86% (inactive)"),
    ("Cc1onc(-c2c(Cl)cccc2Cl)c1C(N)=O", "-11.6% (inactive)"),
    ("CCc1nn2c(=O)cc(CSc3nc4sc5c(c4c(=O)n3C)CCCC5)nc2s1", "-3.07% (inactive)"),
    ("Cc1cc(C(N)=O)c2cc(Br)ccc2n1", "4.62% (inactive)"),
    ("CC(C)Cc1nc(S(=O)(=O)c2ccc(Cl)cc2)c(N2CCOCC2)o1", "13.7% (inactive)"),
    ("CC(=O)Nc1c(-c2ccc(F)cc2)nc2ccccn12", "11.8% (inactive)"),
    ("CCOc1ccc(-c2nnc3sc(-c4c(OC)cccc4OC)nn23)cc1", "10.1% (inactive)"),
    ("COC(=O)c1c(-c2cccs2)csc1NC(=O)CN1CCOCC1", "16.1% (inactive)"),
    ("COC(=O)CSc1nc2ncc(Cl)cc2[nH]1", "15.8% (inactive)"),
    ("C=CCn1c(=O)c(C(=O)Nc2ccccc2C(=O)OCC)c(O)c2ccccc21", "16.9% (inactive)"),
    ("COC(=O)c1ccc(CSc2nnc(-c3ccncc3)o2)o1", "12% (inactive)"),
]
